Property: log10(IC50); scope: individual compounds
# Tested on: SR
# Assay comment: Cytotoxicity against human SR cells
# Format: cell-based
Scale: log10; quantity: IC50; unit before log: nM

Known log10(IC50) results, listed for orientation:
The reported value for N[C@@H](Cc1ccc(N(CCCl)CCCl)cc1)C(=O)O in terms of log10(IC50) is 3.27

The reported value for Cc1ccc(/C=C2\CN(C(=O)c3ccc(OCCN4CCOCC4)cc3)C/C(=C\c3ccc(C)cc3)C2=O)cc1 in terms of log10(IC50) is 2.39

The reported value for O=c1[nH]cc(F)c(=O)[nH]1 in terms of log10(IC50) is 4.78

The reported value for Cc1ccc(/C=C2\CN(C(=O)c3ccc(OCCN(C)C)cc3)C/C(=C\c3ccc(C)cc3)C2=O)cc1 in terms of log10(IC50) is 2.68

The reported value for CC[N+](C)(CC)CCOc1ccc(C(=O)N2C/C(=C\c3ccccc3)C(=O)/C(=C/c3ccccc3)C2)cc1 in terms of log10(IC50) is 4.58

Next:
The reported value for O=C1/C(=C/c2ccc(Cl)cc2)CN(C(=O)c2ccc(OCCN3CCCCC3)cc2)C/C1=C\c1ccc(Cl)cc1 in terms of log10(IC50) is 3.36

The reported value for CN(C)CCOc1ccc(C(=O)N2C/C(=C\c3ccc(Cl)cc3)C(=O)/C(=C/c3ccc(Cl)cc3)C2)cc1 in terms of log10(IC50) is 2.10

The reported value for CC[N+](C)(CC)CCOc1ccc(C(=O)N2C/C(=C\c3ccc(C)cc3)C(=O)/C(=C/c3ccc(C)cc3)C2)cc1 in terms of log10(IC50) is 4.36

The reported value for O=C1/C(=C/c2ccccc2)CNC/C1=C\c1ccccc1 in terms of log10(IC50) is 2.32

Data origin: ChEMBL document CHEMBL1144477
